Reported values: IC50 for GAS41 YEATS domain (Homo sapiens, UniProt O95619), one per item.
One number for each entry, in µM.

Example entries begin here.
INSERT INTO assay_data (item_smiles, subject_of_test, measured_metric, numeric_readout) VALUES
  ('O=C(NCc1ccc(-c2cnc(C3CN(C(=O)c4ccc(NC(=O)[C@@H]5CCCN5)s4)C3)s2)cc1)c1ccccc1', 'GAS41 YEATS domain (Homo sapiens, UniProt O95619)', 'IC50', 1.1),
  ('CCC(=O)NCc1ccc(-c2cnc(C3CN(C(=O)c4cnc(NC(=O)[C@@H]5CC(C)(C)CN5)s4)C3)s2)c2ccccc12', 'GAS41 YEATS domain (Homo sapiens, UniProt O95619)', 'IC50', 118),
  ('CC(=O)NCc1ccc(-c2cnc(C3CN(C(=O)c4ccc(NC(=O)[C@@H]5CCCN5)s4)C3)s2)c(Cl)c1', 'GAS41 YEATS domain (Homo sapiens, UniProt O95619)', 'IC50', 3.4);

Would you mind telling me what IC50 value was observed for O=C(NCc1ccc(-c2cnc(C3CN(C(=O)c4ccc(NC(=O)[C@@H]5CCCN5)s4)C3)s2)cc1)C1CCCC1 ?
1.3

----------
- subject.of.test: NanoLUC-GAS41 and Halo-H3.3 (Homo sapiens, UniProt O95619)
- Sequence (O95619 whole entry): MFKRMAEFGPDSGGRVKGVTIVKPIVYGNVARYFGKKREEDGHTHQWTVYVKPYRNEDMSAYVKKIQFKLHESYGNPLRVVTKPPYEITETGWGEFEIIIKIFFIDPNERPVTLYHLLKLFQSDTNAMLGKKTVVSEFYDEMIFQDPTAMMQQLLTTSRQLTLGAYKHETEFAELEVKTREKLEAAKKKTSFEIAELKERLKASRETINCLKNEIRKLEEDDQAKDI
- assay.comment: GAS41 NanoBRET assay in HEK293T cells
pIC50: −log10 of the molar value.
measured.metric: pIC50

Would you mind telling me what pIC50 value was observed for CCC(=O)NCc1ccc(-c2cnc(C3CN(C(=O)c4cnc(NC(=O)[C@@H]5CC(C)(C)CN5)s4)C3)s2)c2ccccc12 ?
< 4.60

----------
Reported values: pIC50 for his6-GAS41 YEATS (13-158) (Homo sapiens), one per item.
One number for each entry, as −log10 of the molar value.

Example entries begin here.
INSERT INTO assay_data (molecule, measured_metric, numeric_readout) VALUES
  ('O=C(NCc1ccc(-c2cnc(C3CN(C(=O)c4ccc(NC(=O)[C@@H]5CCCN5)s4)C3)s2)cc1)C1CCCC1 [Compound 30]', 'pIC50', 6.22),
  ('O=C(NCc1ccc(-c2cnc(C3CN(C(=O)c4ccc(NC(=O)[C@@H]5CCCN5)s4)C3)s2)cc1)c1ccccc1 [Compound 31]', 'pIC50', 6.70);

Would you mind telling me what pIC50 value was observed for CC(=O)NCc1ccc(-c2cnc(C3CN(C(=O)c4ccc(NC(=O)[C@@H]5CCCN5)s4)C3)s2)c(Cl)c1 [Compound 35] ?
5.85
